Could you please report measured Fold change of IFNγ at 10 µg/ml vs baseline, mouse splenocytes for the items listed next?
# Measurement target: T1, Avi/HisMsIL18BPd (recombinant mouse IL-18BP with Avi and poly-His tags) (mouse, biotinylated with BirA on the Avi tag in some assays)
# T1 chain: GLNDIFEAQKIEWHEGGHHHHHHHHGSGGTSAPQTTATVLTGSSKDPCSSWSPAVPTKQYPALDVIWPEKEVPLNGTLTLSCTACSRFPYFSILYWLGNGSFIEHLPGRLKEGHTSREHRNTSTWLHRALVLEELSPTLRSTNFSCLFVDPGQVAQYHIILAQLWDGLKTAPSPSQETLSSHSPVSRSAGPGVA
# Experiment notes: cell-based or functional assay
State just the number; it will be interpreted in fold.

Notebook: anti-IL18BP antibody BP-02 (antibody, human IgG1, V domains shown) VH: EVQLQQSGPELVKPGASVKIPCKASGYTFTDYNMDWVKQSHGKSLEWIGNINTNNGGTVYNQKFKGKATLTVDKSSSTAYMELRSLTSEDTAVYYCARSDTTVVASRYYAMDYWGQGTSVTVSL VL: DIVLTQSPASLAMSLGKRATISCRASESVSIIATNLIHWYQQKPGQPPKLLIYHASNLETGVPARFSGSGSRTDFTLTIDPVEKDDVAIYYCLQSRKIPPTFGGGTKLEIK , Fold change of IFNγ at 10 µg/ml vs baseline, mouse splenocytes read as 9.34

The reported value for anti-IL18BP antibody BP-05 (antibody, human IgG1, V domains shown) VH: EVQLQQSGPELVKPGASVKIPCKASGYTFTDYNMDWVKQSHGKSLEWIGNINTNNGGTVYNQKFKDKATLTVDKSSSTAYMELRSLTSEDTAVYYCARSDTTVVASRYYALDYWGQGTSVTVSS VL: DIVLTQSPASLAMSLGKRATISCRASESVSIIGTDLIHWYQQKPGQPPKLLIYHASNLETGVPARFSGSGSRTDFTLTIDPVEEDDVAIYYCLQSRKIPPTFGGGTKLEIK in terms of Fold change of IFNγ at 10 µg/ml vs baseline, mouse splenocytes is 3.15

Value of measured Fold change of IFNγ at 10 µg/ml vs baseline, mouse splenocytes for the entry anti-IL18BP antibody BP-09 (antibody, human IgG1, V domains shown) VH: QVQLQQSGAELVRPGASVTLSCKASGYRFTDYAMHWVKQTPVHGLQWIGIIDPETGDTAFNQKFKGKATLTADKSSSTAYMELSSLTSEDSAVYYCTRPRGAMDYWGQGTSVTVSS VL: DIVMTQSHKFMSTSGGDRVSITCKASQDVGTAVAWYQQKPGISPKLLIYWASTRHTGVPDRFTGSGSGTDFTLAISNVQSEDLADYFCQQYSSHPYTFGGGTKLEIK : 2.88

Kindly note the recorded Fold change of IFNγ at 10 µg/ml vs baseline, mouse splenocytes for anti-IL18BP antibody BP-07 (antibody, human IgG1, V domains shown) VH: EVQLQQSGPELVKPGASVKISCRASGFTITDYNMDWVRQSHGKSLEWIGNINLNNGGSIYNQKFKGKATLTIDKSSSTAYMELRSLTSEDTAVYYCARSDTTVVASRYYAMDYWGQGTSVTVSS VL: DIVLTQSPASLAMSLGKRATISCRASESVSIIGTNLIHWYQQKPGQPPKLLIYHASNLETGVPVRFSGSGSRTDFTLTIDPVEEDDVAIYYCLQSRKIPPTFGGGTKLEIK , which is 2.78

Lab note: measured Fold change of IFNγ at 10 µg/ml vs baseline, mouse splenocytes of anti-IL18BP antibody BP-04 (antibody, V domains shown, also called BP-04 (hybridoma); BP-04 (parental)) VH: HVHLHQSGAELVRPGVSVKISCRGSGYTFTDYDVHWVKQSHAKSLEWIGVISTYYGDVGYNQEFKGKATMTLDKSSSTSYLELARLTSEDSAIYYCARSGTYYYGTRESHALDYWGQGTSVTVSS VL: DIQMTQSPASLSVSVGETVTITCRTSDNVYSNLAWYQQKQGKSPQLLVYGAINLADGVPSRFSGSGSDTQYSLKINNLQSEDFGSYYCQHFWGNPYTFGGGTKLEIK was 2.74
